The entries below come with measured pIC50 values attached.
test system: UniProt:B4URF0
Units for pIC50: none; it is -log10 of a concentration expressed in mol/L.

| compound | endpoint value |
| --- | --- |
| CC(C)[C@H](C(=O)NC(=S)NC(=O)NC(C)(C)C)c1ccc(Cl)cc1 | 5.87 |

Inquiry: # query: pIC50 of entry `O=C(NC(=S)Nc1nc(Cl)cc(Cl)n1)c1ccc(-c2ccc([N+](=O)[O-])cc2)o1`
Reply text: 5.78

Inquiry: # query: pIC50 of entry `CC(C)(C)NC(=O)NC(=S)NC(=O)c1c(F)cccc1F`
Reply text: 5.84

Inquiry: # query: pIC50 of entry `Cc1cc(C)nc(NC(=S)NC(=O)c2ccccc2)n1`
Reply text: 5.68

Inquiry: # query: pIC50 of entry `Cc1cc(O)nc(NC(=S)NC(=O)c2ccc(-c3ccc([N+](=O)[O-])cc3)o2)n1`
Reply text: 6.44

Inquiry: # query: pIC50 of entry `CC(C)(C)NC(=O)NC(=S)NC(=O)[C@@H]1[C@H](/C=C(\Cl)C(F)(F)F)C1(C)C`
Reply text: 6.29

Inquiry: # query: pIC50 of entry `COc1cc(Cl)nc(NC(=S)NC(=O)c2ccc(Cl)cc2F)n1`
Reply text: 5.29

Inquiry: # query: pIC50 of entry Cc1cc(C)nc(NC(=S)NC(=O)C2C(/C=C(\Cl)C(F)(F)F)C2(C)C)n1 (stereo not given)
Reply text: 6.24

Inquiry: # query: pIC50 of entry `COC(=O)NC(=S)NC(=O)NC(C)(C)C`
Reply text: 5.74

Inquiry: # query: pIC50 of entry `COc1cc(Cl)nc(NC(=S)NC(=O)c2cccnc2Cl)n1`
Reply text: 5.59

Inquiry: # query: pIC50 of entry `CC(C)(C)NC(=O)NC(=S)NC(=O)c1ccc(-c2ccc([N+](=O)[O-])cc2)o1`
Reply text: 5.89

Inquiry: # query: pIC50 of entry `COc1cc(OC)nc(NC(=S)NC(=O)c2cnc(Cl)c(Cl)c2)n1`
Reply text: 4.73

Inquiry: # query: pIC50 of entry `COc1cc(OC)nc(NC(=S)NC(=O)COc2ccc(Cl)cc2Cl)n1`
Reply text: 5.72

Inquiry: # query: pIC50 of entry `CC(C)(C)NC(=O)NC(=S)NC(=O)c1ccccc1`
Reply text: 5.75

----------
Test system Neuraminidase (Influenza A virus), log10(IC50) listed for each of the compounds.
Log scale reminder: IC50 in nM, then log10 taken.

Recorded results for 5 compounds are shown here.
| compound | log10(IC50) |
| --- | --- |
| Cc1cc(O)nc(NC(=S)NC(=O)c2ccc(Cl)nc2)n1 | 3.93 |
| Cc1cc(C)nc(NC(=S)NC(=O)c2cccnc2Cl)n1 | 3.86 |
| CC(C)(C)NC(=O)NC(=S)NC(=O)[C@H]1[C@H](C=C(Cl)Cl)C1(C)C | 2.41 |
| Cc1cc(C)nc(NC(=S)NC(=O)c2ccc(Cl)cc2F)n1 | 3.13 |
| COc1cc(OC)nc(NC(=S)NC(=O)C2C(/C=C(\Cl)C(F)(F)F)C2(C)C)n1 (stereo not given) | 2.99 |

Inquiry: For the record `COc1cc(OC)nc(NC(=S)NC(=O)c2ccc(-c3ccccc3Cl)o2)n1` , what value of log10(IC50) is listed for Neuraminidase (Influenza A virus)?
Reply text: 3.25

Inquiry: For the record `CCOc1cc(C)nc(NC(=S)NC(=O)c2ccc(-c3ccc([N+](=O)[O-])cc3)o2)n1` , what value of log10(IC50) is listed for Neuraminidase (Influenza A virus)?
Reply text: 3.36

Inquiry: For the record `COc1cc(Cl)nc(NC(=S)NC(=O)c2ccc(-c3ccccc3Cl)o2)n1` , what value of log10(IC50) is listed for Neuraminidase (Influenza A virus)?
Reply text: 3.11
